Answer each item with its documented pKi hM1.
# TGT: hM1 mAChR (Homo sapiens, UniProt P11229)
# Construct: expressed in transfected cells; host or cells: CHO-K1 (membrane preparation)
# Sequence (P11229 whole entry): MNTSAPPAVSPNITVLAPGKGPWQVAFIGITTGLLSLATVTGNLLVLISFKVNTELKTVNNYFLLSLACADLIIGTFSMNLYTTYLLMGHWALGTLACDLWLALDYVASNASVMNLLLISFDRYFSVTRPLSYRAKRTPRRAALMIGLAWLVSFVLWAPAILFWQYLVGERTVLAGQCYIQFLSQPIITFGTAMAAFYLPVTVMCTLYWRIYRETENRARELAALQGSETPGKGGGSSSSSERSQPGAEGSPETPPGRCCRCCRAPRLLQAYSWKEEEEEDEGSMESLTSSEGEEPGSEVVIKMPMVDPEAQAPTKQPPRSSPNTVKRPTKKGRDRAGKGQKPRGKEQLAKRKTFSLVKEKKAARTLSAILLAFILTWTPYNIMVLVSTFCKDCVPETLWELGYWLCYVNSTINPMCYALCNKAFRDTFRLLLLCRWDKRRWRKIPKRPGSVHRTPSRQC
# EXPERIMENTAL DETAILS: [3H]NMS inhibition radioligand binding, hM1 in CHO-K1 cell membranes
# EXPERIMENTAL CONTEXT: [3H]NMS, CHO-K1 cell membranes; mean ± S.E.M.
Give bare numbers.

Please review the following examples before continuing.
C[N+](C)(C)C[C@@H]1CO[C@H](C(c2ccccc2)c2ccccc2)CO1.[I-] (relative stereo) [12a]: 6.28
C[N+](C)(C)C[C@@H]1CO[C@H](c2ccc(Sc3ccccc3)cc2)CO1.[I-] (relative stereo) [15a]: 5.43
C[N+](C)(C)C[C@@H]1COC[C@H](c2ccc(Sc3ccccc3)cc2)O1.[I-] (relative stereo): 5.50
C[N+](C)(C)C[C@@H]1COC[C@H](c2ccc(S(=O)(=O)c3ccccc3)cc2)O1.[I-] (relative stereo): 5.08

Read the next record carefully.
So what does the record say about pKi hM1 for C[N+](C)(C)C[C@@H]1CO[C@H](c2ccccc2)CO1.[I-] (relative stereo) ? 5.63

====

# TGT: hM4 mAChR (Homo sapiens)
# Construct: expressed in transfected cells; host or cells: CHO-K1 (membrane preparation)
# Sequence (P08173 whole entry): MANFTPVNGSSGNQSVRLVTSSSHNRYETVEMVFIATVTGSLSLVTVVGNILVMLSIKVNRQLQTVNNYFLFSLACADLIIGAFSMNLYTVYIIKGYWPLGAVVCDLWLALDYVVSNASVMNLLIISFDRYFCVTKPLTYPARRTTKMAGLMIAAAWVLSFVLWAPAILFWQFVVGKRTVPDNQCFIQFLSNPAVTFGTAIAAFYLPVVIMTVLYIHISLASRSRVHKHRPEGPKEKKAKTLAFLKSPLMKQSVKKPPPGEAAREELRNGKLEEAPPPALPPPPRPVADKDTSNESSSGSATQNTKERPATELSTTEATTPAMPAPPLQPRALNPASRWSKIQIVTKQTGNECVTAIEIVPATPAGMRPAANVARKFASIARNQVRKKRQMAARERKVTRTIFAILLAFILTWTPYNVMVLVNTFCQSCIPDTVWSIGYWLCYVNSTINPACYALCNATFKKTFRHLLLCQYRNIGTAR
# EXPERIMENTAL DETAILS: [3H]NMS inhibition radioligand binding, hM4 in CHO-K1 cell membranes
# EXPERIMENTAL CONTEXT: [3H]NMS, CHO-K1 cell membranes; mean ± S.E.M.
REPORTED ENDPOINT: pKi hM4

Some molecules with recorded pKi hM4:
C[N+](C)(C)C[C@@H]1CO[C@H](c2ccc(Cc3ccccc3)cc2)CO1.[I-] (relative stereo) [14a]: <5
C[N+](C)(C)C[C@@H]1CO[C@@H](c2ccc(-c3ccccc3)cc2)CO1.[I-] (relative stereo) [13b]: <5

Please examine the following record next.
Consider the molecule C[N+](C)(C)C[C@@H]1COC[C@H](c2ccc(-c3ccccc3)cc2)O1.[I-] (relative stereo) and give its measured pKi hM4. <5
